MIC by entry:
System: M. tuberculosis clinical strain 15321
RUN_DESCRIPTION: MIC by microplate alamarBlue assay (MABA)
Format: cell-based, Mycobacterium tuberculosis
MEASUREMENT_CONDITIONS: Mycobacterium tuberculosis; strain 15321: resistant to INH RFP EMB AK ETO OFX RFT
Output spec: scalar in µg/mL, unitless text.

Reference set, count: 2
MOLECULE: NNC(=O)c1ccncc1 [INH, isoniazid]
TARGET_SYSTEM: M. tuberculosis clinical strain 15321
MIC (µg/mL): 1.04
//
MOLECULE: COc1ncc(-c2ccc(Cl)cc2)cc1[C@@H](c1ccccc1)[C@@](O)(CCN(C)C)c1cccc2ccccc12 [WX-081, sudapyridine]
TARGET_SYSTEM: M. tuberculosis clinical strain 15321
MIC (µg/mL): 0.109

Proceed to the following item.
Provide measured MIC value, entry: COc1nc2ccc(Br)cc2cc1[C@@H](c1ccccc1)[C@@](O)(CCN(C)C)c1cccc2ccccc12 [BDQ, bedaquiline] 0.028

====

System: M. tuberculosis clinical strain 14862
RUN_DESCRIPTION: MIC by microplate alamarBlue assay (MABA)
Format: cell-based, Mycobacterium tuberculosis
MEASUREMENT_CONDITIONS: Mycobacterium tuberculosis; strain 14862: resistant to INH SM RFP EMB 1321 CPM PAS
ENDPOINT: MIC (µg/mL)
Output spec: scalar in µg/mL, unitless text.

Reference set, count: 3
SMILES_REPR: CO[C@H]1/C=C/O[C@@]2(C)Oc3c(C)c(O)c4c(O)c(c(/C=N/N5CCN(C)CC5)c(O)c4c3C2=O)NC(=O)/C(C)=C\C=C\[C@H](C)[C@H](O)[C@@H](C)[C@@H](O)[C@@H](C)[C@H](OC(C)=O)[C@@H]1C
MIC, µg/mL: 15.2
//
SMILES_REPR: NNC(=O)c1ccncc1
MIC, µg/mL: 2.17
//
SMILES_REPR: COc1ncc(-c2ccc(Cl)cc2)cc1[C@@H](c1ccccc1)[C@@](O)(CCN(C)C)c1cccc2ccccc12
MIC, µg/mL: 0.026

Proceed to the following item.
With M. tuberculosis clinical strain 14862 as the test system, provide measured MIC for this molecule: COc1nc2ccc(Br)cc2cc1[C@@H](c1ccccc1)[C@@](O)(CCN(C)C)c1cccc2ccccc12 0.006

====

Tested on: M. tuberculosis clinical strain 14282
RUN_DESCRIPTION: MIC by microplate alamarBlue assay (MABA)
Format: cell-based, Mycobacterium tuberculosis
MEASUREMENT_CONDITIONS: Mycobacterium tuberculosis; strain 14282: resistant to INH SM RFP EMB RBT 1321 OFX LFX
ENDPOINT: MIC (mg/L)
Output spec: scalar in mg/L, unitless text.

Reference set, count: 2
COMPOUND: COc1nc2ccc(Br)cc2cc1[C@@H](c1ccccc1)[C@@](O)(CCN(C)C)c1cccc2ccccc12 [BDQ, bedaquiline]
ENDPOINT: MIC
UNIT_LABEL: mg/L
OBSERVED_MEASUREMENT: 0.053

COMPOUND: COc1ncc(-c2ccc(Cl)cc2)cc1[C@@H](c1ccccc1)[C@@](O)(CCN(C)C)c1cccc2ccccc12 [WX-081, sudapyridine]
ENDPOINT: MIC
UNIT_LABEL: mg/L
OBSERVED_MEASUREMENT: 0.113

Proceed to the following item.
Provide measured MIC value, entry: NNC(=O)c1ccncc1 [INH, isoniazid] 2.35
